Tested on: PsFOMT
Assay: In vitro enzyme assay and kinetics of recombinant PsFOMT with flavonoid substrates
Type: biochemical, Paeonia suffruticosa cv. 'Gunpohden'
Conditions: purified recombinant PsFOMT, 200 μM SAM, 1 mM MgCl2, pH 7.5, 35° C.; means (SE) of triplicate assays
parameter: Kcat × 10

compound="C[C@@H]1O[C@@H](OC[C@H]2O[C@@H](Oc3c(-c4ccc(O)c(O)c4)oc4cc(O)cc(O)c4c3=O)[C@H](O)[C@@H](O)[C@@H]2O)[C@H](O)[C@H](O)[C@H]1O [Quercetin 3-O-rutinoside]" parameter="Kcat × 10" endpoint_value="192.11 (4.41) s^−1"
compound="OC[C@H]1O[C@@H](Oc2cc3c(O)cc(O)cc3[o+]c2-c2cc(O)c(O)c(O)c2)[C@H](O)[C@@H](O)[C@@H]1O [Delphinidin 3-O-glucoside]" parameter="Kcat × 10" endpoint_value="94.72 (1.49) s^−1"
compound="OC[C@H]1O[C@@H](Oc2cc3c(O)cc(O)cc3[o+]c2-c2ccc(O)c(O)c2)[C@H](O)[C@@H](O)[C@H]1O [Cyanidin 3-O-galactoside]" parameter="Kcat × 10" endpoint_value="217.90 (36.48) s^−1"
compound="O=c1cc(-c2ccc(O)c(O)c2)oc2cc(O)cc(O)c12 [Luteolin]" parameter="Kcat × 10" endpoint_value=—
compound="OC[C@H]1O[C@@H](Oc2cc3c(O)cc(O)cc3[o+]c2-c2ccc(O)c(O)c2)[C@H](O)[C@@H](O)[C@@H]1O [Cyanidin 3-O-glucoside]" parameter="Kcat × 10" endpoint_value="161.99 (0.73) s^−1"
compound="O=C(O)/C=C/c1ccc(O)c(O)c1 [Caffeic acid]" parameter="Kcat × 10" endpoint_value=—
compound="O=c1c(O)c(-c2ccc(O)c(O)c2)oc2cc(O)cc(O)c12 [Quercetin]" parameter="Kcat × 10" endpoint_value="9.83 (0.12) s^−1"

---

System: PsFOMT
Assay: In vitro enzyme assay and kinetics of recombinant PsFOMT with flavonoid substrates
Type: biochemical, Paeonia suffruticosa cv. 'Gunpohden'
Design: key: —: no product detected
Settings: purified recombinant PsFOMT, 200 μM SAM, 1 mM MgCl2, pH 7.5, 35° C.; means (SE) of triplicate assays
parameter: Specific Activity

molecule="O=c1c(O)c(-c2ccc(O)cc2)oc2cc(O)cc(O)c12 [Kaempferol]" parameter="Specific Activity" endpoint_value=—
molecule="OC[C@H]1O[C@@H](Oc2cc3c(O)cc(O)cc3[o+]c2-c2ccc(O)c(O)c2)[C@H](O)[C@@H](O)[C@@H]1O [Cyanidin 3-O-glucoside]" parameter="Specific Activity" endpoint_value="2314 (11) pkat mg^−1"
molecule="OC[C@H]1O[C@@H](Oc2cc3c(O[C@@H]4O[C@H](CO)[C@@H](O)[C@H](O)[C@H]4O)cc(O)cc3[o+]c2-c2ccc(O)c(O)c2)[C@H](O)[C@@H](O)[C@@H]1O [Cyanidin 3,5-di-O-glucoside]" parameter="Specific Activity" endpoint_value="1788 (15) pkat mg^−1"
molecule="OC[C@H]1O[C@@H](Oc2cc3c(O)cc(O)cc3[o+]c2-c2cc(O)c(O)c(O)c2)[C@H](O)[C@@H](O)[C@@H]1O [Delphinidin 3-O-glucoside]" parameter="Specific Activity" endpoint_value="1364 (21) pkat mg^−1"
